Below is a list of entries, each paired with its recorded pIC50 value.
tested on: L1210, CEM and HeLa cell lines; assay: Cytostatic activity, average or summary over L1210, CEM and HeLa; format: cell-based; details: average of L1210, CEM and HeLa; read-out: Toxicity (IC50) Average
pIC50: −log10 of the molar value.

MOLECULE	EXPERIMENTAL_SYSTEM	pIC50
CNC(CC(C)C)C(=O)NC1C(=O)NC(CC(N)=O)C(=O)NC2C(=O)NC3C(=O)NC(C(=O)NC(C(=O)NCCCNC(=O)c4ccc(C(C)(C)C)cc4)c4cc(O)cc(O)c4-c4cc3ccc4O)C(O)c3ccc(c(Cl)c3)Oc3cc2cc(c3OC2OC(CO)C(O)C(O)C2OC2CC(C)(N)C(O)C(C)O2)Oc2ccc(cc2Cl)C1O (stereo not shown)	L1210, CEM and HeLa cell lines	3.97
CNC(CC(C)C)C(=O)NC1C(=O)NC(CC(N)=O)C(=O)NC2C(=O)NC3C(=O)NC(C(=O)NC(C(=O)NCCCNC(=O)c4ccc(-c5ccccc5)cc4)c4cc(O)cc(O)c4-c4cc3ccc4O)C(O)c3ccc(c(Cl)c3)Oc3cc2cc(c3OC2OC(CO)C(O)C(O)C2OC2CC(C)(N)C(O)C(C)O2)Oc2ccc(cc2Cl)C1O (stereo not shown)	L1210, CEM and HeLa cell lines	4.14
CNC(CC(C)C)C(=O)NC1C(=O)NC(CC(N)=O)C(=O)NC2C(=O)NC3C(=O)NC(C(=O)NC(C(=O)NCCCNC(=O)c4ccc5cc(OC)ccc5c4)c4cc(O)cc(O)c4-c4cc3ccc4O)C(O)c3ccc(c(Cl)c3)Oc3cc2cc(c3OC2OC(CO)C(O)C(O)C2OC2CC(C)(N)C(O)C(C)O2)Oc2ccc(cc2Cl)C1O (stereo not shown)	L1210, CEM and HeLa cell lines	3.73
CCCCCCCc1ccc(C(=O)NCCCNC(=O)C2NC(=O)C3NC(=O)C(NC(=O)C4NC(=O)C(CC(N)=O)NC(=O)C(NC(=O)C(CC(C)C)NC)C(O)c5ccc(c(Cl)c5)Oc5cc4cc(c5OC4OC(CO)C(O)C(O)C4OC4CC(C)(N)C(O)C(C)O4)Oc4ccc(cc4Cl)C3O)c3ccc(O)c(c3)-c3c(O)cc(O)cc32)cc1 (stereo not shown)	L1210, CEM and HeLa cell lines	4.43
